test system: Bacillus subtilis DB104 (SP-AmyQ fusion secretion); test: AmyQ secretion efficiency, weighted average sort bin (1 = best secretion, 10 = worst) (bin number (weighted average, 1-10)); higher = lower secretion efficiency
Threshold check on AmyQ secretion efficiency: at or above 4 gives YES, strictly below gives NO.

Hi team, for MKKCLLFLTTIALILSLSTNAFYKNT , is the recorded AmyQ secretion efficiency at or above 4? YES

Hi team, for MKLAKRVSALTPSTTLAITGKAKEL , is the recorded AmyQ secretion efficiency at or above 4? YES

Hi team, for MAIIIAIIAANVRNASPG , is the recorded AmyQ secretion efficiency at or above 4? YES

Hi team, for MRGKSAVLLSLIMLIAGFLDEESFSFQM , is the recorded AmyQ secretion efficiency at or above 4? YES

Hi team, for MRKYTVIASILLSFLSVLKKKKHHKSKAFPV , is the recorded AmyQ secretion efficiency at or above 4? YES

Hi team, for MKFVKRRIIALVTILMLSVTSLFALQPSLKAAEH , is the recorded AmyQ secretion efficiency at or above 4? NO

Hi team, for MKRKLRRKRRKSALSLGLLVSAPTASFAAES , is the recorded AmyQ secretion efficiency at or above 4? YES

Hi team, for MPYLKRVLLLLVTGLFMSLFAVTATASKQTG , is the recorded AmyQ secretion efficiency at or above 4? NO

Hi team, for MKWMCSICCAAVLLAGGATQAEAV , is the recorded AmyQ secretion efficiency at or above 4? NO

Hi team, for MKKRLIAPMLLSAASLAFFAMSGSAQWAAY , is the recorded AmyQ secretion efficiency at or above 4? YES

Hi team, for MRNLTKTSLLLAGLCTAAQMVFVTHTSAEES , is the recorded AmyQ secretion efficiency at or above 4? NO

Hi team, for MKKAAAVLLSLGLVFGFSYGAGHVAEADDD , is the recorded AmyQ secretion efficiency at or above 4? YES

Hi team, for MKTLRTLCVLMILSGVIFFGLKCDAKDI , is the recorded AmyQ secretion efficiency at or above 4? YES

Hi team, for MKRFSTAYLLLGILCSAAVFLIKRPSRALGAEV , is the recorded AmyQ secretion efficiency at or above 4? YES

Hi team, for MFKKHTISLLIIFLLASAVLAKPIEAHTK , is the recorded AmyQ secretion efficiency at or above 4? NO

Hi team, for MKKRITYSFTMMLLALLAVVAFAFTDSSKAKAAEA , is the recorded AmyQ secretion efficiency at or above 4? NO

Hi team, for MKVCQKSIVRFKRRKRRGTFVISVPFMANAQSD , is the recorded AmyQ secretion efficiency at or above 4? YES

Hi team, for MKLSVKIAGVLTVAAAAMTAKMYATNKGN , is the recorded AmyQ secretion efficiency at or above 4? YES

Hi team, for MKKTIMSQKQTAALSTTAFGAHASAKEI , is the recorded AmyQ secretion efficiency at or above 4? YES

Hi team, for MKTLRNMLSTLCVLMILSGVIFFGLKIDAKDI , is the recorded AmyQ secretion efficiency at or above 4? YES

Hi team, for MRPVFPLILSAVLFLSCFFGARQTESFASASKR , is the recorded AmyQ secretion efficiency at or above 4? YES

Hi team, for MNLRKILLSSALSLGMLVSAAPVLLTSS , is the recorded AmyQ secretion efficiency at or above 4? YES

Hi team, for MKRKLLSSLAISALSLGLLVSAPTASFARKR , is the recorded AmyQ secretion efficiency at or above 4? NO

Hi team, for MKSCKQLIVCSLAAILLLIPSVSFAAPR , is the recorded AmyQ secretion efficiency at or above 4? NO

Hi team, for MSKWMAGLFLAAAVLLCLMVPQQIQGASS , is the recorded AmyQ secretion efficiency at or above 4? YES

Hi team, for MRKKRVITCVMAASLTLGSLLTAVTASAKED , is the recorded AmyQ secretion efficiency at or above 4? NO

Hi team, for MKKRFSLIMMTGLLFGLTSPTFAAEK , is the recorded AmyQ secretion efficiency at or above 4? NO
